Tested on: HCC-44
Assay Remarks: relative viability (nuclei count vs DMSO), 5 days (fraction); higher = more cells survive
Test Conditions: first compound 1 µM
Provide the reported relative viability of each item.
One number for each entry.

Consider the reported relative viability for these compounds:
Compound | Target Or Test System | relative viability
NC(=O)Nc1cc(-c2cccc(F)c2)sc1C(=O)N[C@H]1CCCNC1 [AZD7762] + CS(=O)(=O)N1CCN(Cc2cc3nc(-c4cccc5[nH]ncc45)nc(N4CCOCC4)c3s2)CC1 [Pictilisib] (partner 1 µM) | HCC-44 | 0.556
NC(=O)Nc1cc(-c2cccc(F)c2)sc1C(=O)N[C@H]1CCCNC1 [AZD7762] + COc1cccc2cc(-c3nc([C@H]4CC[C@H](C(=O)O)CC4)n4ncnc(N)c34)[nH]c12 [OSI-027] (partner 0.5 µM) | HCC-44 | 0.491
NC(=O)Nc1cc(-c2cccc(F)c2)sc1C(=O)N[C@H]1CCCNC1 [AZD7762] + N=C(N)NC(=N)NCCc1ccccc1 [Phenformin] (partner 250 µM) | HCC-44 | 0.121

Req: Consider the compound shown here: NC(=O)Nc1cc(-c2cccc(F)c2)sc1C(=O)N[C@H]1CCCNC1 [AZD7762] + C[C@@H](Oc1cc(-c2cnn(C3CCNCC3)c2)cnc1N)c1c(Cl)ccc(F)c1Cl [Crizotinib] (partner 1 µM) What is its recorded relative viability?
Resp: 0.745

---

Test system: NCI-H1651
Assay Remarks: relative viability (nuclei count vs DMSO), 5 days (fraction); higher = more cells survive
Test Conditions: first compound 0.03162 µM
Mark Condition met for relative viability under 0.8, Condition not met if at or over.

A selection of reference data follows.
Molecule | Target Or Test System | Assigned Category
NC(=O)Nc1cc(-c2cccc(F)c2)sc1C(=O)N[C@H]1CCCNC1 [AZD7762] + CC(=O)c1c(C)c2cnc(Nc3ccc(N4CCNCC4)cn3)nc2n(C2CCCC2)c1=O [Palbociclib] (partner 0.5 µM) | NCI-H1651 | Condition met
NC(=O)Nc1cc(-c2cccc(F)c2)sc1C(=O)N[C@H]1CCCNC1 [AZD7762] + CC(=O)Nc1cccc(-n2c(=O)n(C3CC3)c(=O)c3c(Nc4ccc(I)cc4F)n(C)c(=O)c(C)c32)c1 [Trametinib] (partner 0.02 µM) | NCI-H1651 | Condition not met
NC(=O)Nc1cc(-c2cccc(F)c2)sc1C(=O)N[C@H]1CCCNC1 [AZD7762] + CCNC(=O)c1noc(-c2cc(C(C)C)c(O)cc2O)c1-c1ccc(CN2CCOCC2)cc1 [Luminespib] (partner 0.01 µM) | NCI-H1651 | Condition not met
NC(=O)Nc1cc(-c2cccc(F)c2)sc1C(=O)N[C@H]1CCCNC1 [AZD7762] + CS(=O)(=O)CCNCc1ccc(-c2ccc3ncnc(Nc4ccc(OCc5cccc(F)c5)c(Cl)c4)c3c2)o1 [Lapatinib] (partner 2 µM) | NCI-H1651 | Condition not met
NC(=O)Nc1cc(-c2cccc(F)c2)sc1C(=O)N[C@H]1CCCNC1 [AZD7762] + O=C(CCCCCCC(=O)Nc1ccccc1)NO [Vorinostat] (partner 1 µM) | NCI-H1651 | Condition met

Req: Quick check: does NC(=O)Nc1cc(-c2cccc(F)c2)sc1C(=O)N[C@H]1CCCNC1 [AZD7762] + Nc1nc2[nH]cc(CCc3ccc(C(=O)N[C@@H](CCC(=O)O)C(=O)O)cc3)c2c(=O)[nH]1 [Pemetrexed] (partner 0.2 µM) have relative viability under 0.8?
Resp: Condition met

---

Tested on: NCI-H358
Assay Remarks: relative viability (nuclei count vs DMSO), 5 days (fraction); higher = more cells survive
Test Conditions: first compound 1 µM
Mark T for relative viability under 0.4, F if at or over.

Compound | Target Or Test System | Assigned Category
NC(=O)Nc1cc(-c2cccc(F)c2)sc1C(=O)N[C@H]1CCCNC1 [AZD7762] + COc1cc2c(Oc3ccc(NC(=O)C4(C(=O)Nc5ccc(F)cc5)CC4)cc3F)ccnc2cc1OCCCN1CCOCC1 [Foretinib] (partner 0.25 µM) | NCI-H358 | T
NC(=O)Nc1cc(-c2cccc(F)c2)sc1C(=O)N[C@H]1CCCNC1 [AZD7762] + CS(=O)(=O)N1CCN(Cc2cc3nc(-c4cccc5[nH]ncc45)nc(N4CCOCC4)c3s2)CC1 [Pictilisib] (partner 1 µM) | NCI-H358 | T

Req: Quick check: does NC(=O)Nc1cc(-c2cccc(F)c2)sc1C(=O)N[C@H]1CCCNC1 [AZD7762] + CS(=O)(=O)CCNCc1ccc(-c2ccc3ncnc(Nc4ccc(OCc5cccc(F)c5)c(Cl)c4)c3c2)o1 [Lapatinib] (partner 2 µM) have relative viability under 0.4?
Resp: T

Req: Quick check: does NC(=O)Nc1cc(-c2cccc(F)c2)sc1C(=O)N[C@H]1CCCNC1 [AZD7762] + Nc1ncn([C@H]2C[C@H](O)[C@@H](CO)O2)c(=O)n1 [Decitabine] (partner 2 µM) have relative viability under 0.4?
Resp: T

Req: Quick check: does NC(=O)Nc1cc(-c2cccc(F)c2)sc1C(=O)N[C@H]1CCCNC1 [AZD7762] + COc1cccc2cc(-c3nc([C@H]4CC[C@H](C(=O)O)CC4)n4ncnc(N)c34)[nH]c12 [OSI-027] (partner 0.5 µM) have relative viability under 0.4?
Resp: F

---

Provide the reported relative viability of each item.
Tested on: EKVX
Assay Remarks: relative viability (nuclei count vs DMSO), 5 days (fraction); higher = more cells survive
Test Conditions: first compound 8 µM
Numbers only.

Consider the reported relative viability for these molecules:
Molecule | Target Or Test System | Result
C=C1C(=O)O[C@@H](CCCCCCCC)[C@@H]1C(=O)O [C-75] + O=C(c1cc(Cc2n[nH]c(=O)c3ccccc23)ccc1F)N1CCN(C(=O)C2CC2)CC1 [Olaparib] (partner 8 µM) | EKVX | 0.759
C=C1C(=O)O[C@@H](CCCCCCCC)[C@@H]1C(=O)O [C-75] + C[C@]1(O)C[C@@H](c2nc(-c3ccc4ccc(-c5ccccc5)nc4c3)c3c(N)nccn32)C1 [Linsitinib] (partner 1 µM) | EKVX | 0.908
C=C1C(=O)O[C@@H](CCCCCCCC)[C@@H]1C(=O)O [C-75] + NC(=O)Nc1cc(-c2cccc(F)c2)sc1C(=O)N[C@H]1CCCNC1 [AZD7762] (partner 0.2 µM) | EKVX | 0.51

Hey, quick one: what's relative viability for each of these?
1. C=C1C(=O)O[C@@H](CCCCCCCC)[C@@H]1C(=O)O [C-75] + N=C(N)NC(=N)NCCc1ccccc1 [Phenformin] (partner 250 µM)
2. C=C1C(=O)O[C@@H](CCCCCCCC)[C@@H]1C(=O)O [C-75] + CS(=O)(=O)N1CCN(Cc2cc3nc(-c4cccc5[nH]ncc45)nc(N4CCOCC4)c3s2)CC1 [Pictilisib] (partner 1 µM)
3. C=C1C(=O)O[C@@H](CCCCCCCC)[C@@H]1C(=O)O [C-75] + Cc1cc(Nc2cc(N3CCN(C)CC3)nc(Sc3ccc(NC(=O)C4CC4)cc3)n2)n[nH]1 [Tozasertib] (partner 0.1 µM)
4. C=C1C(=O)O[C@@H](CCCCCCCC)[C@@H]1C(=O)O [C-75] + Cc1nc(NC(=O)N2CCC[C@H]2C(N)=O)sc1-c1ccnc(C(C)(C)C(F)(F)F)c1 [Alpelisib] (partner 2 µM)

Resp:
0.25
0.452
0.382
0.969

---

Tested on: LCLC-97TM1
Assay Remarks: relative viability (nuclei count vs DMSO), 5 days (fraction); higher = more cells survive
Test Conditions: first compound 0.005 µM
Reported Endpoint: relative viability

Req: Consider the compound shown here: CC1(C)CCC(c2ccc(Cl)cc2)=C(CN2CCN(c3ccc(C(=O)NS(=O)(=O)c4ccc(N[C@H](CCN5CCOCC5)CSc5ccccc5)c(S(=O)(=O)C(F)(F)F)c4)cc3)CC2)C1 [Navitoclax] + C[C@@H](Oc1cc(-c2cnn(C3CCNCC3)c2)cnc1N)c1c(Cl)ccc(F)c1Cl [Crizotinib] (partner 1 µM) What is its recorded relative viability?
Resp: 0.358

---

Tested on: NCI-H838
Assay Remarks: relative viability (nuclei count vs DMSO), 5 days (fraction); higher = more cells survive
Test Conditions: first compound 0.005 µM
Reported Endpoint: relative viability
One number for each entry.

Consider the reported relative viability for these compounds:
Compound | relative viability
CC1(C)CCC(c2ccc(Cl)cc2)=C(CN2CCN(c3ccc(C(=O)NS(=O)(=O)c4ccc(N[C@H](CCN5CCOCC5)CSc5ccccc5)c(S(=O)(=O)C(F)(F)F)c4)cc3)CC2)C1 [Navitoclax] + Cc1nc(NC(=O)N2CCC[C@H]2C(N)=O)sc1-c1ccnc(C(C)(C)C(F)(F)F)c1 [Alpelisib] (partner 2 µM) | 0.96
CC1(C)CCC(c2ccc(Cl)cc2)=C(CN2CCN(c3ccc(C(=O)NS(=O)(=O)c4ccc(N[C@H](CCN5CCOCC5)CSc5ccccc5)c(S(=O)(=O)C(F)(F)F)c4)cc3)CC2)C1 [Navitoclax] + CCNC(=O)c1noc(-c2cc(C(C)C)c(O)cc2O)c1-c1ccc(CN2CCOCC2)cc1 [Luminespib] (partner 0.01 µM) | 0.344
CC1(C)CCC(c2ccc(Cl)cc2)=C(CN2CCN(c3ccc(C(=O)NS(=O)(=O)c4ccc(N[C@H](CCN5CCOCC5)CSc5ccccc5)c(S(=O)(=O)C(F)(F)F)c4)cc3)CC2)C1 [Navitoclax] + O=C(c1cc(Cc2n[nH]c(=O)c3ccccc23)ccc1F)N1CCN(C(=O)C2CC2)CC1 [Olaparib] (partner 8 µM) | 0.775

Now look at this entry.
Req: Consider the compound shown here: CC1(C)CCC(c2ccc(Cl)cc2)=C(CN2CCN(c3ccc(C(=O)NS(=O)(=O)c4ccc(N[C@H](CCN5CCOCC5)CSc5ccccc5)c(S(=O)(=O)C(F)(F)F)c4)cc3)CC2)C1 [Navitoclax] + CC(=O)c1c(C)c2cnc(Nc3ccc(N4CCNCC4)cn3)nc2n(C2CCCC2)c1=O [Palbociclib] (partner 0.5 µM) What is its recorded relative viability?
Resp: 0.193

// provenance: the supplement of paper PMC10307832
